Molecular target: T1, P2-AA-1HAA-E
T1 chain: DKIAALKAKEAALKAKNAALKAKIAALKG
Test: two-hybrid library CCmax;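 note: natural log of median RNA to DNA barcode read ratio; higher means stronger binding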
Details: mean of both orientations
measured parameter: interaction score

1) DEIAALEAEHAALEAENAALEAEIAALEG [P1-AA-1HAA-H]	0.913
2) DEIAALEAEYAALEAENAALEAEIAALEG [P1-AA-1HAA-Y]	0.866
3) DEIAALEAEVAALEAENAALEAEIAALEG [P1-AA-1HAA-V]	1.98
4) DEIAALEAESAALEAENAALEAEIAALEG [P1-AA-1HAA-S]	1.97
5) DEIAALEAETAALEAENAALEAEIAALEG [P1-AA-1HAA-T]	2.02
6) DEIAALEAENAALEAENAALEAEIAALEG [P1-AA]	1.78
7) DEIAALEAEKAALEAENAALEAEIAALEG [P1-AA-1HAA-K]	0.472
